# reported protein stability index; entries follow
B1: ZNF263 (parent)
chain: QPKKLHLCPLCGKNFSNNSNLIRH

- Variants of: B1
- measurement-description: protein stability index of a GFP-peptide fusion (GPS, HEK-293T) (PSI 1-6); higher = more stable;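 further: lentivirally expressed fusions sorted by FACS into six bins by GFP to DsRed ratio, PSI derived from sequencing read proportions per bin multiplied by bin number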
- condition: c terminus: a fixed tail appended
Answer using only a numeral; do not append any unit.

>>> df
                construct_sequence  numeric_result
0  QPKKLHLCPLCGGNFSNNSNLIRH [K13G]            2.24
1  QPKKLHLCPLCGKNFSNNSNLIRA [H24A]            1.74
2  QPKKLHLCPLCGKSFSNNSNLIRH [N14S]            3.48
3  QPKKLHLCPLCGKNFSNNSNLITH [R23T]            2.92
4   QPFKLHLCPLCGKNFSNNSNLIRH [K3F]            2.83
5   QPKKFHLCPLCGKNFSNNSNLIRH [L5F]            1.81
6  QPKKLHLCPLCGKNFSNNMNLIRH [S19M]             2.7
7  QPKKLHLCPLCGKNFSNNSNSIRH [L21S]            2.19
8   QPKKQHLCPLCGKNFSNNSNLIRH [L5Q]            2.54
9  QPKKLHLCPLCGKNESNNSNLIRH [F15E]            2.07

Query: Which protein stability index value belongs to QPKMLHLCPLCGKNFSNNSNLIRH [K4M] ?
Response: 2.53

Query: Please answer likewise for QPKKLHLCALCGKNFSNNSNLIRH [P9A]
Response: 2.43

Query: Please answer likewise for QPKKLALCPLCGKNFSNNSNLIRH [H6A]
Response: 2.02

Query: Please answer likewise for QPKKLHPCPLCGKNFSNNSNLIRH [L7P]
Response: 2.07

Query: Please answer likewise for QPKKLHLCPLCGKNFSNCSNLIRH [N18C]
Response: 2.48

Query: Please answer likewise for QPKKLHLCPLCGKVFSNNSNLIRH [N14V]
Response: 3.04

Query: Please answer likewise for QPKKLHLCPLCGKNFSNESNLIRH [N18E]
Response: 3.66

Query: Please answer likewise for QPKELHLCPLCGKNFSNNSNLIRH [K4E]
Response: 3.36
